# target-desc: SWI/SNF-related matrix-associated actin-dependent regulator of chromatin subfamily A member 2 (Homo sapiens) (UniProt P51531)
# Sequence (P51531 whole entry): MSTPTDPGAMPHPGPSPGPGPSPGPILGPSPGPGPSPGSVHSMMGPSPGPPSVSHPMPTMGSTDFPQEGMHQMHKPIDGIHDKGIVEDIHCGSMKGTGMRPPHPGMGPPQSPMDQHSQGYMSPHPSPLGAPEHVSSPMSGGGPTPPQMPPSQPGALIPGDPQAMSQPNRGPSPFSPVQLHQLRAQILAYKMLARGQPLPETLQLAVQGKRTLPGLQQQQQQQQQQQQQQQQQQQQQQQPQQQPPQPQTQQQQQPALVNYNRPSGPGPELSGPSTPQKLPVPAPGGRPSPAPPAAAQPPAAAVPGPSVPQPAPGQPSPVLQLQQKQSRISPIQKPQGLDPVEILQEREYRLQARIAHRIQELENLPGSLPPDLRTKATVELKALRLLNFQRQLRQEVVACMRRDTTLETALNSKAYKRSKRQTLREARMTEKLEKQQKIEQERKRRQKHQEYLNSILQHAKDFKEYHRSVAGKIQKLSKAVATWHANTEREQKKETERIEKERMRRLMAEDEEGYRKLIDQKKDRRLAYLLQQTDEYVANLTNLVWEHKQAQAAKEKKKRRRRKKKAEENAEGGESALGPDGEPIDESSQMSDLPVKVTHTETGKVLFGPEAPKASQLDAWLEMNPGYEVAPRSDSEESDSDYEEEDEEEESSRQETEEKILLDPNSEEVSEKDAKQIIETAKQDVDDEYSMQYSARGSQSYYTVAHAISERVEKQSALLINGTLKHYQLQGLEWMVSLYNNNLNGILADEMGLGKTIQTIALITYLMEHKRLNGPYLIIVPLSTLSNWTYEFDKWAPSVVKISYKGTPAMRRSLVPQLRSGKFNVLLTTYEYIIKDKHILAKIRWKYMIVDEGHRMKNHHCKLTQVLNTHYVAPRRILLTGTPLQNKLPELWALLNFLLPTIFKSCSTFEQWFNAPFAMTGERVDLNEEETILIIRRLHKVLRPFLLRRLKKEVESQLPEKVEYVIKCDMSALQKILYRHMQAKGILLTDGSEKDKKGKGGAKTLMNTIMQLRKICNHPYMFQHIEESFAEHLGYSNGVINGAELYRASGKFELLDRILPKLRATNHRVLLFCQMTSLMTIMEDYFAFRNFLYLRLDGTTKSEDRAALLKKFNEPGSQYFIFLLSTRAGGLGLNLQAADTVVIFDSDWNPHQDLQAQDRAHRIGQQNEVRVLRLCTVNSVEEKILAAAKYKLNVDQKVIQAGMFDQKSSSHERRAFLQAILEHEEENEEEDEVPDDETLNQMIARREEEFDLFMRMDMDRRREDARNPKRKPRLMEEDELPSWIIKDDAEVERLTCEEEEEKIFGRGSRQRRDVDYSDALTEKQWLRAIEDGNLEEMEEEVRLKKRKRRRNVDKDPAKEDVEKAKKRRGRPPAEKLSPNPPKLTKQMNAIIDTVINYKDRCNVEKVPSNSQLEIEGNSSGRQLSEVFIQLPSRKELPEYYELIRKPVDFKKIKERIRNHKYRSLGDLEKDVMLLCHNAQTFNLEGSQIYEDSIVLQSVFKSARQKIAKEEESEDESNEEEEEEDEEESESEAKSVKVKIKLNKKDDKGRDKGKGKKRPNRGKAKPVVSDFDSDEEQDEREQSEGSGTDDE
# method-notes: Binding affinity to SMARCA2B (unknown origin) assessed as change in melting temperature at 100 uM incubated for 30 mins by thermal shift assay
measured-metric: ΔTm (°C)
Numbers only here, please. The scale is °C.

These solved cases illustrate the format of a correct answer.
                              line_notation  measured_result
0  Cc1cc(F)cc(C)c1Oc1ccc(C(C)(C)O)cc1-c1cn(C)c(=O)c2cc(-c3cnc(C4CC4)[nH]3)oc12            -0.25
1  Cc1cc(F)cc(C)c1Oc1ccc(C(C)(C)O)cc1-c1cn(C)c(=O)c2cc(-c3cnc(C4CCC4)[nH]3)oc12             0.75
2  Cc1cc(F)cc(C)c1Oc1ccc(C(C)(C)O)cc1-c1cn(C)c(=O)c2cc(-c3cnc(C4CCCCC4)[nH]3)oc12                1
3  Cc1sc2c(c1C)C(c1ccc(Cl)cc1)=N[C@@H](CC(=O)OC(C)(C)C)c1nnc(C)n1-2             0.25

Query block: What value of ΔTm has been reported for the following compound? `Cc1cc(F)cc(C)c1Oc1ccc(C(C)(C)O)cc1-c1cn(C)c(=O)c2cc(-c3cnc(C4CCCC4)[nH]3)oc12`
Result block: 1

* * *

# Tested on: THP-1
# method-notes: Antiproliferative activity against human THP-1 cells assessed as cell growth inhibition incubated for 72 hrs by Cell titre Glo-luminiscence cell viability assay
# Type: functional, cell-based
# measurement-setup: THP-1, 72 h
measured-metric: pIC50
Conceptually, pIC50 converts a concentration in mol/L into minus its log10.

Query block: What value of pIC50 has been reported for the following molecule? `Cc1cc(F)cc(C)c1Oc1ccc(C(C)(C)O)cc1-c1cn(C)c(=O)c2cc(-c3cnc(C4CCCC4)[nH]3)oc12`
Result block: 5.89

* * *

This section presents compounds with their documented ΔTm values.
# target-desc: Bromodomain-containing protein 3 (Homo sapiens, UniProt Q15059)
# Sequence (Q15059 2-726 limits assumed): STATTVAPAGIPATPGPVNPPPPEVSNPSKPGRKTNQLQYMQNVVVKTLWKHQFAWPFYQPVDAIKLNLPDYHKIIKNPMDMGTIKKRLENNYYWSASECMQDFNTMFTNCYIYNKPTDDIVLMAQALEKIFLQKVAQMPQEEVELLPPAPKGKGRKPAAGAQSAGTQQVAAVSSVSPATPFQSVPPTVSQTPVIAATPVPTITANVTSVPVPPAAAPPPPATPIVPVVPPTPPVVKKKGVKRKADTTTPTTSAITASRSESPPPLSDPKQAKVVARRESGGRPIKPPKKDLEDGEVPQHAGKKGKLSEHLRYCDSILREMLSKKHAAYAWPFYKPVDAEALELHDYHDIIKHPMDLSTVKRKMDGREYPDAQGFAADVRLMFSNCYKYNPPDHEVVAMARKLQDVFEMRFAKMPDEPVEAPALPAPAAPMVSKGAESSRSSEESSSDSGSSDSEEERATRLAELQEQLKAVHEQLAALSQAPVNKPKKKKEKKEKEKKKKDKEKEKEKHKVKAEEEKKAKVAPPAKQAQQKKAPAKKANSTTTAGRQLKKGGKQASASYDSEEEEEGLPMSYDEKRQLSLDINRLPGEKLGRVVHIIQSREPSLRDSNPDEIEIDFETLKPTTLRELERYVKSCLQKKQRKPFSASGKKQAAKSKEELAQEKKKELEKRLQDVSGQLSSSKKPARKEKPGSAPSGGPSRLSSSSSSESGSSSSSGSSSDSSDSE
# method-notes: Binding affinity to His6-fused BRD3 BD2 (unknown origin) assessed as change in melting temperature at 100 uM incubated for 30 mins by thermal shift assay
Numbers only here, please. The scale is °C.

These solved cases illustrate the format of a correct answer.
>>> df
                              line_notation  measured_metric  measured_result
0  Cc1cc(F)cc(C)c1Oc1ccc(C(C)(C)O)cc1-c1cn(C)c(=O)c2cc(-c3cnc(C4CC4)[nH]3)oc12              ΔTm               13
1  Cc1cc(F)cc(C)c1Oc1ccc(C(C)(C)O)cc1-c1cn(C)c(=O)c2cc(-c3cnc(C4CCCC4)[nH]3)oc12              ΔTm             11.5
2  Cc1cc(F)cc(C)c1Oc1ccc(C(C)(C)O)cc1-c1cn(C)c(=O)c2cc(-c3cnc(C4CCC4)[nH]3)oc12              ΔTm               12

Query block: What value of ΔTm has been reported for the following compound? `Cc1cc(F)cc(C)c1Oc1ccc(C(C)(C)O)cc1-c1cn(C)c(=O)c2cc(-c3cnc(C4CCCCC4)[nH]3)oc12`
Result block: 9

* * *

This section presents compounds with their documented log10(IC50) values.
# target-desc: Bromodomain-containing protein 4 (Homo sapiens, UniProt O60885)
# method-notes: Inhibition of C-terminal His6-tagged BRD4 BD2 (unknown origin) using H-YSGRGK(Ac)GGK(Ac)GLGK(Ac)-GGAK(Ac)RHRK-Biotin-OH as substrate incubated for 1 hrs by HTRF assay
All values: log10 IC50 [nM].

These solved cases illustrate the format of a correct answer.
>>> print(df.to_string())
                              line_notation                               target_desc  measured_metric  measured_result
0  CCS(=O)(=O)Nc1ccc(Oc2c(C)cc(F)cc2C)c(-c2cn(C)c(=O)c3cc(-c4cc(C)c(OCCO)c(C)c4)oc23)c1  Bromodomain-containing protein 4 (Homo sapiens, UniProt O60885)      log10(IC50)            -0.10
1  CCCS(=O)(=O)Nc1ccc(Oc2ccc(F)cc2F)c(-c2cn(C)c(=O)c3cc(-c4cc(C)c(OCCO)c(C)c4)oc23)c1  Bromodomain-containing protein 4 (Homo sapiens, UniProt O60885)      log10(IC50)            -0.19
2  CCc1cccc(CC)c1Oc1ccc(NS(=O)(=O)CC)cc1-c1cn(C)c(=O)c2cc(-c3cc(C)c(OCCO)c(C)c3)oc12  Bromodomain-containing protein 4 (Homo sapiens, UniProt O60885)      log10(IC50)             0.99
3  CCS(=O)(=O)Nc1ccc(Oc2ccc(F)cc2F)c(-c2cn(C)c(=O)c3cc(-c4ccc(OCCO)cc4)oc23)c1  Bromodomain-containing protein 4 (Homo sapiens, UniProt O60885)      log10(IC50)            -0.21
4  CCS(=O)(=O)Nc1ccc(Oc2ccc(F)cc2F)c(-c2cn(C)c(=O)c3cc(-c4cc(C)c(OCCO)c(C)c4)oc23)c1  Bromodomain-containing protein 4 (Homo sapiens, UniProt O60885)      log10(IC50)            -0.22
5  CCc1cccc(C)c1Oc1ccc(NS(=O)(=O)CC)cc1-c1cn(C)c(=O)c2cc(-c3cc(C)c(OCCO)c(C)c3)oc12  Bromodomain-containing protein 4 (Homo sapiens, UniProt O60885)      log10(IC50)             0.15

Please turn your attention to the following entry.
Query block: What value of log10(IC50) has been reported for the following compound? `CCS(=O)(=O)Nc1ccc(Oc2ccc(F)cc2F)c(-c2cn(C)c(=O)c3cc(-c4cnc(C5CC5)[nH]4)oc23)c1`
Result block: -0.47

* * *

# target-desc: Bromodomain-containing protein 2 (Homo sapiens, UniProt P25440)
# Sequence (P25440 whole entry, the tested form may be a part): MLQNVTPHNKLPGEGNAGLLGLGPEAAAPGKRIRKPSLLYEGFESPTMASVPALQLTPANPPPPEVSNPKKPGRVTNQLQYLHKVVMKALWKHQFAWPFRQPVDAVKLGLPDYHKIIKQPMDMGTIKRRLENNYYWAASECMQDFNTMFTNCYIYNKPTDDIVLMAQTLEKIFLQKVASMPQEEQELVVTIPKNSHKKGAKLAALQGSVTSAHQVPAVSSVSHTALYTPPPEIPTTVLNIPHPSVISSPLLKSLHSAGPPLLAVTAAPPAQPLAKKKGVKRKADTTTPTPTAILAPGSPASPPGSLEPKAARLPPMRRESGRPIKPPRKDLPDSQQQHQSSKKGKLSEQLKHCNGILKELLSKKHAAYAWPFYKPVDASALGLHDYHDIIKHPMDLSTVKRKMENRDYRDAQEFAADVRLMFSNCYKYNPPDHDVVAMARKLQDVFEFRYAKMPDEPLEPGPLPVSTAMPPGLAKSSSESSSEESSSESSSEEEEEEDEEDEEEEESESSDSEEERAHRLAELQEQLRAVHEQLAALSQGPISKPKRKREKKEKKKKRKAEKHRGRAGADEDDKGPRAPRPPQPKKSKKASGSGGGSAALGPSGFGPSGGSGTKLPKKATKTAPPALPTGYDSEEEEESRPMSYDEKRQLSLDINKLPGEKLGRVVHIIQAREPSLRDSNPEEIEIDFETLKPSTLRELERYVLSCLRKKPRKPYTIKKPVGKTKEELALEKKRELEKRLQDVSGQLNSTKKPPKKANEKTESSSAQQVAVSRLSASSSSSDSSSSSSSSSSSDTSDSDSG
# method-notes: Binding affinity to His6-fused BRD2 BD2 (unknown origin) assessed as dissociation constant in PBS incubated for 1 hrs by biolayer interferometry analysis
This section presents compounds with their documented Kd values.
Numbers only here, please. The scale is nM.

>>> print(df.to_string())
                              line_notation  measured_result
0  Cc1cc(F)cc(C)c1Oc1ccc(C(C)(C)O)cc1-c1cn(C)c(=O)c2cc(-c3cnc(C4CCCC4)[nH]3)oc12             23.5

Please turn your attention to the following entry.
Query block: What value of Kd has been reported for the following compound? `Cc1cc(F)cc(C)c1Oc1ccc(C(C)(C)O)cc1-c1cn(C)c(=O)c2cc(-c3cnc(C4CCCCC4)[nH]3)oc12`
Result block: 126

* * *

# target-desc: Bromodomain testis-specific protein (Homo sapiens, UniProt Q58F21)
# method-notes: Binding affinity to His6-fused BRDT BD2 (unknown origin) assessed as dissociation constant in PBS incubated for 1 hrs by biolayer interferometry analysis
This section presents molecules with their documented Kd values.

In [3]: df
Out[3]:
                              line_notation  measured_metric  measured_result
0  Cc1cc(F)cc(C)c1Oc1ccc(C(C)(C)O)cc1-c1cn(C)c(=O)c2cc(-c3cnc(C4CCCCC4)[nH]3)oc12               Kd         0.195 µM

Please turn your attention to the following entry.
Query block: What value of Kd has been reported for the following molecule? `Cc1cc(F)cc(C)c1Oc1ccc(C(C)(C)O)cc1-c1cn(C)c(=O)c2cc(-c3cnc(C4CCCC4)[nH]3)oc12`
Result block: 0.0388 µM

* * *

This section presents compounds with their documented pIC50 values.
# target-desc: Bromodomain-containing protein 4 (Homo sapiens, UniProt O60885)
# method-notes: Inhibition of C-terminal His6-tagged BRD4 BD2 (unknown origin) using H-YSGRGK(Ac)GGK(Ac)GLGK(Ac)-GGAK(Ac)RHRK-Biotin-OH as substrate incubated for 1 hrs by HTRF assay
Conceptually, pIC50 converts a concentration in mol/L into minus its log10.

These solved cases illustrate the format of a correct answer.
>>> print(df.to_string())
                              line_notation                               target_desc  measured_metric  measured_result
0  Cc1cc(-c2cc3c(=O)n(C)cc(-c4cc(NS(=O)(=O)C5CC5)ccc4Oc4ccc(F)cc4F)c3o2)cc(C)c1OCCO  Bromodomain-containing protein 4 (Homo sapiens, UniProt O60885)            pIC50             9.00
1  Cc1cc(-c2cc3c(=O)n(C)cc(-c4cc(CS(=O)(=O)C(C)C)ccc4Oc4ccc(F)cc4F)c3o2)cc(C)c1OCCO  Bromodomain-containing protein 4 (Homo sapiens, UniProt O60885)            pIC50             9.21
2  CCS(=O)(=O)Nc1ccc(Oc2c(F)cc(F)cc2F)c(-c2cn(C)c(=O)c3cc(-c4cc(C)c(OCCO)c(C)c4)oc23)c1  Bromodomain-containing protein 4 (Homo sapiens, UniProt O60885)            pIC50             9.31
3  CCS(=O)(=O)Nc1ccc(Oc2ccc(F)cc2F)c(-c2cn(C)c(=O)c3cc(-c4cc(C)cc(C)c4)oc23)c1  Bromodomain-containing protein 4 (Homo sapiens, UniProt O60885)            pIC50             8.43
4  Cc1cc(-c2cc3c(=O)n(C)cc(-c4cc(CS(=O)(=O)C(C)(C)C)ccc4Oc4ccc(F)cc4F)c3o2)cc(C)c1OCCO  Bromodomain-containing protein 4 (Homo sapiens, UniProt O60885)            pIC50             8.85

Query block: Give Bromodomain-containing protein 4 (Homo sapiens, UniProt O60885) pIC50 for `Cc1cc(-c2cc3c(=O)n(C)cc(-c4cc(C(C)(C)O)ccc4Oc4c(C)cc(F)cc4C)c3o2)cc(C)c1OCCCO`
Result block: 8.85

Query block: Give Bromodomain-containing protein 4 (Homo sapiens, UniProt O60885) pIC50 for `Cc1cc(F)cc(C)c1Oc1ccc(C(C)(C)O)cc1-c1cn(C)c(=O)c2cc(-c3cnc(C4CCCCC4)[nH]3)oc12`
Result block: 8.84
